Test: inhibitors of GR-EGFP nuclear translocation, primary screen, dynein cargo transport inhibitor project, imaging, high-content, 3617.4 mouse cells (AID 1381)
Settings: measured here: cytoplasmic GR-EGFP intensity, at 50 µM, stronger effect = higher value, stimulated with dexamethasone, 1 µM
Out of some 220,000 compounds screened, about 1,000 (0.45%) were called active. Many of the other results were omitted from the sample, so actives are more common in it than they were.
Label T when z-score >= -0.2; otherwise F.

Observe how each entry below is paired with its result.
[[record]]
smiles_str = "CCN(CC)c1ccc2oc(=O)c(C)nc2c1"
classification = "T"

[[record]]
smiles_str = "Cc1ccc(Cn2c(C)nc3c(c2=O)c2nc4ccccc4nc2n3Cc2ccco2)cc1"
classification = "T"

[[record]]
smiles_str = "CCN(CC)S(=O)(=O)c1ccc2c3c(cccc13)C(=O)S2"
classification = "F"

[[record]]
smiles_str = "O=c1[nH]c2ccccc2n2c(-c3ccccc3)nnc12"
classification = "T"

[[record]]
smiles_str = "CCOC(=O)c1cc2c(ccn2C)n1CC(=O)N1CCC(C)CC1"
classification = "F"


Query string: Check this compound for z-score at or above -0.2: COc1ccccc1NC(=O)c1ccc(C)s1
Result string: F

Query string: Could you tell me if the measured z-score of Cc1ccc(NC(=O)c2cc(-c3ccc(C)o3)nc3ccccc23)nc1 reaches -0.2 or more?
Result string: T

Query string: Does z-score meet or surpass -0.2 for CC(=O)Nc1ccccc1OC(=O)N1CCOCC1 ?
Result string: T

Query string: Please check the record COc1cc2c(cc1OC)C(C(C)C)=NC(C)(C)C2 and state if its z-score is at or above -0.2.
Result string: T
